- Tested on: SK-MEL-5 melanoma
- ASSAY_PROCEDURE: NCI-60 one-dose screen, 48 h (100 = growth as untreated, 0 = no growth, -100 = all killed)
- CONDITIONS: 10 µM unless noted
Compounds without any hit were thinned out: in the full panel of roughly 83,000, 20% have a hit.

- COMPOUND: "O=C(CN1CCN(c2cccc(Cl)c2)CC1)N1CCN(c2nnc(-c3ccc(Cl)cc3)c(-c3ccc(Cl)cc3)n2)CC1"
  MEASURED_ON: "SK-MEL-5 melanoma"
  UNIT_INFO: "%"
  growth: 61.6
- COMPOUND: "Oc1ccc(Br)cc1/C=N/NC(=S)NC12CC3CC(CC(C3)C1)C2"
  MEASURED_ON: "SK-MEL-5 melanoma"
  UNIT_INFO: "%"
  growth: 28.6
- COMPOUND: "CC(CCN1CCN(CCC(C)CC(C)(C)C)C1CC(C)CC(C)(C)C)CC(C)(C)C (stereo not given)"
  MEASURED_ON: "SK-MEL-5 melanoma"
  UNIT_INFO: "%"
  growth: 108
- COMPOUND: "O=C(CCCC(=O)Nc1ccc(Cn2nnc3cc(Cl)c(Cl)cc32)cc1)Nc1ccc(CN2N=NC3C=C(Cl)C(Cl)=CC32)cc1 (stereo not given)"
  MEASURED_ON: "SK-MEL-5 melanoma"
  UNIT_INFO: "%"
  growth: 89.8
- COMPOUND: "COc1cc(NC(=O)CSc2nc3ccc(Cl)cc3c(=O)n2-c2ccc(F)cc2)cc(OC)c1OC"
  MEASURED_ON: "SK-MEL-5 melanoma"
  UNIT_INFO: "%"
  growth: 73.9

----------
- System: MALME-3M melanoma
- ASSAY_PROCEDURE: NCI-60 one-dose screen, 48 h
- CONDITIONS: 10 µM unless noted
- Protocol: Cells are grown in 96 well plates and exposed to the test compound for 48 hours. Compounds are tested at a single concentration, which is 10^-5 M for most compounds. The reported endpoint is percent growth (GI% or GIPRCNT), where numbers from 0 - 100% represent growth inhibition, and numbers from -100% - 0 represent cell death. For example, a value of 40 represents 60% growth inhibition. A value of 0 means no net growth occurred over the course of the experiment. […]
This is part of a sample that, as a whole, favours compounds with a hit. Of some 83,000 tested, about 20% had one in any assay. Activity calls are given as the source filed them. How the source made its calls: active means growth percent below 10; inactive means the rest.
Labels: active, inactive

- COMPOUND: "O=CN/N=C/c1ccc(Cl)c([N+](=O)[O-])c1"
  CLASS_LABEL: "inactive"
- COMPOUND: "Cc1nc2c(nnn2-c2ccccc2)c2nc(-c3ccccc3)oc(=O)c12"
  CLASS_LABEL: "inactive"
- COMPOUND: "O=c1c(N=Nc2nccs2)c(-c2ccccc2)[nH]n1-c1nc(-c2ccccc2)cs1"
  CLASS_LABEL: "inactive"
- COMPOUND: "CC1=C[C@@H]2c3c(c(O)c(O)c4oc5cc(O)cc(O)c5c(=O)c34)[C@@H](c3cc(O)c(O)c4oc5cc(O)cc(O)c5c(=O)c34)[C@@H]2C(C)(C)C1"
  CLASS_LABEL: "active"
- COMPOUND: "Cc1ccc([C@@H]2C[C@H](O)Cc3ccccc3N2)s1"
  CLASS_LABEL: "inactive"
- COMPOUND: "O=C1CSC(c2ccccc2Cl)N1c1nnc(-c2ccncc2)o1 (centres undefined)"
  CLASS_LABEL: "inactive"
- COMPOUND: "CCS(=O)(=O)N[C@@H]1O[C@H](COC(C)=O)C(OC(C)=O)[C@H](OC(C)=O)C1OC(C)=O (some centres undefined)"
  CLASS_LABEL: "inactive"
- COMPOUND: "CC#Cc1nc(Nc2cc(C)[nH]n2)c2ccccc2n1"
  CLASS_LABEL: "active"
- COMPOUND: "CCN(CC)c1ccc2nc3ccc(N=Nc4ccc(O)cc4)cc3[n+](-c3ccccc3)c2c1"
  CLASS_LABEL: "inactive"

----------
- System: OVCAR-5 ovarian
- ASSAY_PROCEDURE: NCI-60 one-dose screen, 48 h (100 = growth as untreated, 0 = no growth, -100 = all killed)
- CONDITIONS: 10 µM unless noted
The panel holds about 83,000 compounds, 20% with a hit somewhere; the sample as a whole holds those more often.
Here, each record is paired with measured growth data.

- MOLECULE: "O=C1C(Cl)=C(Nc2ccc(Nc3ccccc3)c(NC3=C(Cl)C(=O)c4ccccc4C3=O)c2)C(=O)c2ccccc21"
  UNIT_INFO: "%"
  growth: 141
- MOLECULE: "O=C1C(=O)c2ccccc2C(O)=C1CCCc1ccc(Oc2ccccc2)cc1"
  UNIT_INFO: "%"
  growth: 110
- MOLECULE: "Cc1c(C(N)=O)sc2c1c(=O)n(Cc1ccccc1)c1nnc(S(C)(=O)=O)n21"
  UNIT_INFO: "%"
  growth: 135
- MOLECULE: "CC(O)C(N)=O (stereo unspecified)"
  UNIT_INFO: "%"
  growth: 101
- MOLECULE: "N#Cc1c2ncccc2c2nnc3cc(Cl)c(Cl)cc3n12"
  UNIT_INFO: "%"
  growth: 90.1
- MOLECULE: "O=c1c2c(c3ccccc3n1-c1ccccc1)NC(=S)NC2c1ccc(Cl)cc1 (stereo unspecified)"
  UNIT_INFO: "%"
  growth: 45.5
- MOLECULE: "C=CCNCCC#N"
  UNIT_INFO: "%"
  growth: 108
- MOLECULE: "CCCCCCCCCCCCOC(=N)N(C)C"
  UNIT_INFO: "%"
  growth: 99.4
- MOLECULE: "C#CCCCCCCC[C@@H]1OC(=O)[C@H]([C@@H](C)CC)NC(=O)[C@H]([C@@H](C)CC)NC(=O)CC(=O)[C@@H]1C"
  UNIT_INFO: "%"
  growth: 90.6
- MOLECULE: "CC(C)(C)c1ccc(OCCOC(=O)CBr)cc1"
  UNIT_INFO: "%"
  growth: 104
- MOLECULE: "Cc1nc(NC(=S)Nc2ccc(F)cc2)sc1C(=O)NNC(=S)Nc1ccc(F)cc1"
  UNIT_INFO: "%"
  growth: 86.3
- MOLECULE: "N#Cc1c2cccnc2c2nnc3cc(Cl)c(Cl)cc3n12"
  UNIT_INFO: "%"
  growth: 89.3
- MOLECULE: "COc1ccc(Cn2cc3c(c2-c2ccccc2)CCc2cnoc2-3)cc1OC"
  UNIT_INFO: "%"
  growth: 75.6
- MOLECULE: "CCC(C)C1NC(=O)C(CCCCN)NC(=O)C(CCCCN)NC(=O)C(CC(C)C)NC(=O)C(CCCCN)NC(=O)C(C(C)CC)NC(=O)C(C(C)C)NC(=O)C(C(C)CC)NC(=O)C(CCCCN)NC(=O)C(CCCCN)NC(=O)C(C)NC(=O)C(CCCCN)NC(=O)C(CC(C)C)NC1=O (stereo unspecified)"
  UNIT_INFO: "%"
  growth: 67.3
- MOLECULE: "COc1cc(-c2cc3cnccc3c3nc(N)c4ccncc4c23)cc(OC)c1OC"
  UNIT_INFO: "%"
  growth: 68.7
- MOLECULE: "COc1ccc(C(=O)NCCNc2nccc(-c3c(-c4ccc(F)cc4)nc4sccn34)n2)cc1"
  UNIT_INFO: "%"
  growth: 62.4

----------
- Test system: KM12 colon
- ASSAY_PROCEDURE: NCI-60 one-dose screen, 48 h (100 = growth as untreated, 0 = no growth, -100 = all killed)
- CONDITIONS: 10 µM unless noted
About 83,000 compounds went through this panel and 20% of them were active in at least one assay; those are over-represented in the sample as a whole.

- MOLECULE: "Cc1c(C(N)=O)sc2c1c(=O)n(Cc1ccccc1)c1nnc(S(C)(=O)=O)n21"
  MEASURED_ON: "KM12 colon"
  UNIT_INFO: "%"
  growth: 109
- MOLECULE: "[2H]c1nc(=Nc2cc(NC(=O)C=C)c(N(C)CCN(C)C)cc2OC)[nH]c(-c2cn(C([2H])([2H])[2H])c3ccccc23)c1[2H]"
  MEASURED_ON: "KM12 colon"
  UNIT_INFO: "%"
  growth: 65.3
- MOLECULE: "Nc1ccc(S(=O)(=O)c2ccc(NO)cc2)cc1"
  MEASURED_ON: "KM12 colon"
  UNIT_INFO: "%"
  growth: 116
- MOLECULE: "c1cc(C2CCCCC2)ccc1OCCCCCCN1CCNCC1"
  MEASURED_ON: "KM12 colon"
  UNIT_INFO: "%"
  growth: 6.42
- MOLECULE: "CC(C)C(=O)c1ccc(Cl)s1"
  MEASURED_ON: "KM12 colon"
  UNIT_INFO: "%"
  growth: 100
- MOLECULE: "Cc1nn(-c2ccccc2)c(N)c1N=C1NC(=O)/C(=C/c2ccc(Cl)cc2)S1"
  MEASURED_ON: "KM12 colon"
  UNIT_INFO: "%"
  growth: 78.3
- MOLECULE: "CCCC(CCC)Oc1ccc(CCCC2=C(O)c3ccccc3C(=O)C2=O)cc1"
  MEASURED_ON: "KM12 colon"
  UNIT_INFO: "%"
  growth: 23.7
- MOLECULE: "Brc1c(-c2ccncc2)nc2n1CCS2"
  MEASURED_ON: "KM12 colon"
  UNIT_INFO: "%"
  growth: 116
- MOLECULE: "O=C1CSC(c2ccccc2Cl)N1c1nnc(-c2ccncc2)o1 (stereo unspecified)"
  MEASURED_ON: "KM12 colon"
  UNIT_INFO: "%"
  growth: 105
- MOLECULE: "COc1ccc(/C=C/C(=O)/C=C/c2cc3ccccc3[nH]c2=O)cc1"
  MEASURED_ON: "KM12 colon"
  UNIT_INFO: "%"
  growth: 27.6
- MOLECULE: "N=C(c1ccccc1)N(Cc1ccccc1)Cc1ccccc1"
  MEASURED_ON: "KM12 colon"
  UNIT_INFO: "%"
  growth: 101
